Target sequence: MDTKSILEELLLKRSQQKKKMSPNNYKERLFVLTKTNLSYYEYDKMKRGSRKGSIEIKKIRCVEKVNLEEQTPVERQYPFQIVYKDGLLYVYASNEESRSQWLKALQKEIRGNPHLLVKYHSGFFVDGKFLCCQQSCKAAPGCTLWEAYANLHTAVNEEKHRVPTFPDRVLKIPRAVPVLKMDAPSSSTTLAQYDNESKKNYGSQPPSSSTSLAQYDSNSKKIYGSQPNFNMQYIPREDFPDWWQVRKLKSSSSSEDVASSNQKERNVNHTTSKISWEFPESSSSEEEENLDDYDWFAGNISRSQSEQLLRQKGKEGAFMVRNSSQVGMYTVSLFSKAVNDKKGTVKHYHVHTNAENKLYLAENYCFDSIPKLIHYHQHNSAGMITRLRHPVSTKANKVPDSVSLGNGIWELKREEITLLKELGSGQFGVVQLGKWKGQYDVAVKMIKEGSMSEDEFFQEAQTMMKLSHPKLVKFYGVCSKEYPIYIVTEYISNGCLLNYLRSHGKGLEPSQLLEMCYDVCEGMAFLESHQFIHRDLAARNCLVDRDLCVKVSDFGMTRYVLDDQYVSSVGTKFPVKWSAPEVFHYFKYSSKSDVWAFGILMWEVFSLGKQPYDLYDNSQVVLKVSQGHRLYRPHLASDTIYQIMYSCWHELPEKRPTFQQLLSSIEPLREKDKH
Task for the reader: assign each of the following compounds its reported IC50.
Numbers only; they are read as µM.

Query block: Read the entry "C=CC(=O)N1CC[C@@H](Nc2n[nH]c3nccc(-c4ccc([C@H](C)NC(=O)c5ccc(C(C)(C)C)cc5)cc4)c23)C1" and write its reported IC50.
Result block: 0.709

Query block: Read the entry "C=CC(=O)N1CC[C@@H](Nc2n[nH]c3nccc(-c4ccc(CNC(=O)c5ccn(C(C)(C)C)n5)c(F)c4)c23)C1" and write its reported IC50.
Result block: 0.219

Query block: Read the entry "C[C@H]1CC[C@@H](Nc2n[nH]c3nccc(-c4ccc(CNC(=O)c5nc(C(C)(C)C)no5)c(F)c4)c23)CN1C(=O)N1CCOCC1" and write its reported IC50.
Result block: 0.863

Query block: Read the entry "C[C@@H](NC(=O)c1nc(C(C)(C)C)no1)c1ccc(-c2ccnc3[nH]nc(N4CCC(N)CC4)c23)cc1F" and write its reported IC50.
Result block: 1.52

meta.source: patent US20180194762A1
